Data provenance is PubChem BioAssay AID2665.

Target: Muscarinic acetylcholine receptor M5 (Homo sapiens)
Assay: M5 positive allosteric modulators, analog testing, SAR follow-up, CHO cells, calcium, ACh EC10, single 30 µM (AID 2665);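 also: 100% = response to a maximal acetylcholine concentration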
Details: CHO hM5 calcium flux, ACh EC10 potentiation; at 30 µM; stronger effect = higher value
// reported % ACh max response per item
All answers are understood in %, so give the number only.

Recorded results for 8 compounds are shown here.
INSERT INTO measurements (line_notation, tested_system, measured_attribute, measured_value) VALUES
  ('O=C1C(=O)N(Cc2ccc(-c3ccc(F)nc3)cc2)c2ccc(OC(F)(F)F)cc21', 'Muscarinic acetylcholine receptor M5 (Homo sapiens)', '% ACh max response', 78.8),
  ('Cc1ccccc1CN1C(=O)C(=O)c2c(Cl)ccc(Cl)c21', 'Muscarinic acetylcholine receptor M5 (Homo sapiens)', '% ACh max response', 16.4),
  ('Cc1ccc2c(c1)C(=O)C(=O)N2Cc1ccc(C(F)(F)F)cc1', 'Muscarinic acetylcholine receptor M5 (Homo sapiens)', '% ACh max response', 35.5),
  ('O=C1C(=O)N(Cc2ccc(-c3ccc(Cl)nc3)cc2)c2ccccc21', 'Muscarinic acetylcholine receptor M5 (Homo sapiens)', '% ACh max response', 47.8),
  ('COc1ccc(CN2C(=O)C(=O)c3cccc(Cl)c32)cc1', 'Muscarinic acetylcholine receptor M5 (Homo sapiens)', '% ACh max response', 30.3),
  ('Cc1ccccc1CN1C(=O)C(=O)c2cccc(Cl)c21', 'Muscarinic acetylcholine receptor M5 (Homo sapiens)', '% ACh max response', 32.6),
  ('O=C1C(=O)N(Cc2c(F)cccc2F)c2c(F)cccc21', 'Muscarinic acetylcholine receptor M5 (Homo sapiens)', '% ACh max response', 25.1),
  ('Cc1ccc2c(c1)C(=O)C(=O)N2Cc1ccc(Br)cc1', 'Muscarinic acetylcholine receptor M5 (Homo sapiens)', '% ACh max response', 24.1);

Task: Given the entry O=C1C(=O)N(Cc2c(F)cccc2F)c2ccc(Cl)cc21 , report its measured % ACh max response.
Result: 31.8

Task: Given the entry O=C1C(=O)N(Cc2c(F)cccc2F)c2c(Cl)cccc21 , report its measured % ACh max response.
Result: 23.6

Task: Given the entry COc1cccc(CN2C(=O)C(=O)c3cc(F)ccc32)c1 , report its measured % ACh max response.
Result: 41.6

Task: Given the entry O=C1C(=O)N(Cc2ccc(F)cc2F)c2ccccc21 , report its measured % ACh max response.
Result: 40.4

Task: Given the entry COc1ccc(CN2C(=O)C(=O)c3cc(OC(F)(F)F)ccc32)cc1 , report its measured % ACh max response.
Result: 60.7

Task: Given the entry Cc1cccc2c1N(Cc1c(F)cccc1F)C(=O)C2=O , report its measured % ACh max response.
Result: 14.4

Task: Given the entry COc1ccc(CN2C(=O)C(=O)c3c(Cl)ccc(Cl)c32)cc1 , report its measured % ACh max response.
Result: 11.7

Task: Given the entry O=C1C(=O)N(CCc2ccc(Br)cc2)c2ccccc21 , report its measured % ACh max response.
Result: 65
